Source of measurements: ChEMBL document CHEMBL1140167

The following compounds have recorded IC50 on UniProt Q9P8Q7.
Sequence (Q9P8Q7 whole entry): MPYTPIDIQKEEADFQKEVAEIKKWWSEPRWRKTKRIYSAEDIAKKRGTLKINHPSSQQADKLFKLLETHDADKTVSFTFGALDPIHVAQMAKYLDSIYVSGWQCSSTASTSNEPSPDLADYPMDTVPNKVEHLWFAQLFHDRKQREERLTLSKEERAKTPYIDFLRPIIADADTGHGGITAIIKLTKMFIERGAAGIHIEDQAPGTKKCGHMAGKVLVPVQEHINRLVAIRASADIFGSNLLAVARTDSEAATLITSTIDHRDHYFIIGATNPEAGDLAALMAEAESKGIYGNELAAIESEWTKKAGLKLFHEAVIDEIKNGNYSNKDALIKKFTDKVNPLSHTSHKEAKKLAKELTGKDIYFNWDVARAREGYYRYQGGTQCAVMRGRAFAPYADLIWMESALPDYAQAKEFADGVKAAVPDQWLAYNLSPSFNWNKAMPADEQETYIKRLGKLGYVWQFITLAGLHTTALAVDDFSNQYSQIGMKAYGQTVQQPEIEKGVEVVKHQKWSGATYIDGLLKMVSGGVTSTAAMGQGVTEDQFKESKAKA
Use µM as the unit, but write only the number.

Example entries begin here.
*Q* Form field: reported IC50 of CC(C)=CCC/C(=C/CC/C(C)=C/CC/C(C)=C/Cc1cc(O)cc(C)c1O)C(=O)O [SARGAHYDROQUINOIC ACID]
*A* 117

*Q* Form field: reported IC50 of C=CC(C)(CC/C=C(\C)CC/C=C(\C)C(=O)[C@@H](O)C=C(C)C)Oc1ccc(O)cc1CC(=O)OC (some centres undefined)
*A* 103

*Q* Form field: reported IC50 of C=CC(C)(CC/C=C(\C)CCCC(C)C(O)/C=C/C(=C)C)Oc1ccc(O)cc1CC(=O)OC (centres undefined)
*A* 106

Let us move to another entry and its IC50.
*Q* Form field: reported IC50 of C=CC(C)(CC/C=C(\C)CC/C=C(\C)[C@H](O)C(=O)C=C(C)C)Oc1ccc(O)cc1CC(=O)OC (some centres undefined)
*A* 103
